- System: SK-OV-3 ovarian
- experimentalProtocol: NCI tumour cell line growth inhibition, 48 h
propertyLabel: GI50

Worked examples, 5 compounds total:
{"compound": "CC(=O)[CH-]C(=O)c1ccccc1.CC(=O)[CH-]C(=O)c1ccccc1.CC[O-].O=C1c2ccccc2C(=O)c2c1ccc(O)c2[O-].[Ti+4]", "GI50": "52.5 µM"}
{"compound": "O=C1C(Cl)=C(Nc2cccc(C(F)(F)F)c2)C(=O)N1Cc1ccc(Cl)cc1", "GI50": "3.78 µM"}
{"compound": "Cc1ccc([C@]2(C)CC[C@H](C)/C2=C\\Br)c(O)c1", "GI50": "2.45 µM"}
{"compound": "CC#Cc1nc(Nc2cc(C)[nH]n2)c2ccccc2n1", "GI50": "5.19 µM"}
{"compound": "CCN(CC)c1ccc(/C=C/C=C2\\NC(=O)NC2=O)cc1", "GI50": "7.6 µM"}

Ask | Indicate its recorded GI50; the compound in question is CC[C@H](C)C(=O)O[C@H]1C[C@H](O)C=C2C=C[C@H](C)[C@H](CC[C@@H](O)C[C@@H](O)CC(=O)O)[C@H]21
Reply | > 100 µM

Ask | Indicate its recorded GI50; the compound in question is COc1ccc2nc3cc(Cl)ccc3c(NCCNc3c4ccc(Cl)cc4nc4ccc(OC)cc34)c2c1
Reply | 1.73 µM

Ask | Indicate its recorded GI50; the compound in question is CC1=NN(c2nc(N)nc(/C=C\c3ccc([N+](=O)[O-])s3)n2)C(C)(C)C1
Reply | > 100 µM

Ask | Indicate its recorded GI50; the compound in question is CCN(c1cc(C#CCN2CCOCC2)cc(C(=O)NCc2c(C)cc(C)[nH]c2=O)c1C)C1CCC(N(C)CCOC)CC1 (centres undefined)
Reply | > 100 µM

* * *

# log10 of TGI values compiled below
- System: NCI-H226 lung
- experimentalProtocol: NCI tumour cell line growth inhibition, 48 h
Scale: decimal log of TGI, TGI in µM.

Worked examples, 4 compounds total:
{"compound": "O=C(NC(=O)c1ccccc1[N+](=O)[O-])Nc1ccc(Oc2ncc(Cl)cn2)c(C(F)(F)F)c1", "log10 of TGI": 0.14}
{"compound": "C/C=C(/C)C(=O)O[C@H]1[C@H](O)CC(c2ccc3c(c2O)C(O)=C2C(=O)C4(OC)C(O)=C(C(N)=O)C(=O)[C@H](CC(=O)c5ccccc5O)C4CC2[C@@]3(C)OC)O[C@@H]1C (some centres not stated)", "log10 of TGI": 0.37}
{"compound": "CN1CCN(C2=CC(=O)c3c(O)ccc(O)c3C2=O)CC1", "log10 of TGI": 0.47}
{"compound": "O=C1C(Cl)=C(Nc2cccc(O)c2)C(=O)N1Cc1ccc(Cl)cc1Cl", "log10 of TGI": 1.31}

Ask | GET log10 of TGI where system = NCI-H226 lung and item = COc1ccc(-c2nn(-c3ccc(NC(=O)Nc4ccc(Cl)c(C(F)(F)F)c4)cc3)cc2-c2ccncc2)cc1Cl
Reply | 0.94

Ask | GET log10 of TGI where system = NCI-H226 lung and item = CCN1CCC(O)(/C=C/c2ccc(C(C)C)cc2)C(C(=O)/C=C/c2ccc(C(C)C)cc2)C1 (configuration not stated)
Reply | 0.96

Ask | GET log10 of TGI where system = NCI-H226 lung and item = CC(C)(C)c1ccc(NS(=O)(=O)c2ccc3nc(NC(=O)c4cnccn4)[nH]c3c2)cc1
Reply | 0.91

Ask | GET log10 of TGI where system = NCI-H226 lung and item = [N-]=[N+]=Nc1c([N+](=O)[O-])c(=O)n2c3c(cccc13)CCC2
Reply | 1.72

Ask | GET log10 of TGI where system = NCI-H226 lung and item = CCCCCCCCCCCCCC(=O)N(CCCCCCCCC)CC(O)C(O)C(OC1OC(CO)C(O)C(O)C1O)C(O)CO (configuration not stated)
Reply | 1.54

Ask | GET log10 of TGI where system = NCI-H226 lung and item = CCCCCCCCCCCCCCCC1=NC(C)(C)CN1C(C)C
Reply | 0.82
